Assay: Evaluation of pharmacokinetics in mice
Type: in vivo, CD-1 mice
Settings: mouse, plasma, iv; male CD-1 mice, tail vein injection, 1 mg/kg; read-out: Half-life T1/2 (converted)
measurementLabel: half-life (h)
Lab book: enter the figure in h, no units written.

Requested field: half-life. Item: O=C(O)CCc1ccc2c(c1)nc(Nc1ccc(OC(F)(F)F)cc1)n2[C@@H]1CCCc2ccccc21 2.9

====

Assay: Evaluation of pharmacokinetics in mice
Type: in vivo, CD-1 mice
Settings: mouse, po; male CD-1 mice, intragastric administration, 20 mg/kg, plasma; read-out: Highest concentration Cmax
measurementLabel: Cmax (µM)
Lab book: enter the figure in µM, no units written.

Requested field: Cmax. Item: O=C(O)CCc1ccc2c(c1)nc(Nc1ccc(OC(F)(F)F)cc1)n2[C@@H]1CCCc2ccccc21 33.4

====

Target: IDH1(R132H) (Homo sapiens, UniProt O75874, R132H)
Sequence (O75874 whole entry R132H): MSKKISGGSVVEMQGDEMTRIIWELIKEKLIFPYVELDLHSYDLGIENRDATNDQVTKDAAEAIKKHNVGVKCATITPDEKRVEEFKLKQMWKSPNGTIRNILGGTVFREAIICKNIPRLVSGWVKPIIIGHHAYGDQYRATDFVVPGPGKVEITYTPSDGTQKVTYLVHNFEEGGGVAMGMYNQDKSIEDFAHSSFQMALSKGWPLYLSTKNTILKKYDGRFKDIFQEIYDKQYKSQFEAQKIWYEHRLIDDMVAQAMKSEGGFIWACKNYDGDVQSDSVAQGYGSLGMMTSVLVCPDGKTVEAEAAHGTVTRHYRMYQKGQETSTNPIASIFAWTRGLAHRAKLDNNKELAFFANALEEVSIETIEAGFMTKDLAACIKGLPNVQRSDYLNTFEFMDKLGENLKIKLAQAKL
Assay: IDH1 in vitro enzyme activity test (IDH1 R132H)
Conditions: 1500 μM α-KG + 15 μM NADPH
Description: The IDH1 mutant catalyzes the NADPH-dependent reduction of α-KG (α-ketoglutarate) to 2-HG (2-hydroxyglutarate), and the consumed NADPH can be read by fluorescence. […] 1.33× enzyme (no enzyme in the control well), buffer, and NADP or NADPH (control well) were added into the wells of the reaction plate. […] Multifunctional microplate reader Envision was used to measure (Ex/Em=535/590 nm).
measurementLabel: pIC50
Remember, pIC50 is on a log scale: it is -log10 of the molar concentration.

>>> print(df.to_string())
                          compoundstructure  obsvalue
0  C[C@H](c1cccc(Cl)c1)n1c(Nc2ccc(OC(F)(F)F)cc2)nc2cc(CCC(=O)O)ccc21      6.92
1  C[C@H](c1ccc(F)cc1)n1c(Nc2ccc(OC(F)(F)F)cc2)nc2cc(CCC(=O)O)ccc21      6.90
2  O=C(O)CCc1ccc2c(c1)nc(Nc1ccc(OC(F)(F)F)cc1)n2C(c1ccccc1)c1ccccc1      7.66
3  COc1ccccc1[C@@H](C)n1c(Nc2ccc(OC(F)(F)F)cc2)nc2cc(CCC(=O)O)ccc21      6.46
4  O=C(O)CCc1ccc2c(c1)nc(Nc1ccc(OC(F)(F)F)cc1)n2[C@@H]1CCc2ccccc21      8.54
5  O=C(O)CCc1ccc2c(c1)nc(Nc1ccc(OC(F)(F)F)cc1)n2[C@@H]1CCCc2ccccc21      8.40
6  C[C@H](c1ccc(Cl)cc1)n1c(Nc2ccc(OC(F)(F)F)cc2)nc2cc(CCC(=O)O)ccc21      6.49

Requested field: pIC50. Item: O=C(O)CCc1ccc2c(c1)nc(Nc1ccc(OC(F)(F)F)cc1)n2[C@@H](c1ccccc1)C1CC1 7.80

====

Biological target: IDH1(R132H) (Homo sapiens, UniProt O75874, R132H)
Experiment: IDH1 in vitro enzyme activity test (IDH1 R132H)
Conditions: 1500 μM α-KG + 15 μM NADPH
measurementLabel: pIC50
Remember, pIC50 is on a log scale: it is -log10 of the molar concentration.

>>> df
                                   compound  obsvalue
0  C[C@@H](c1ccccc1)n1c(Nc2ccc(OC(F)(F)F)cc2)nc2cc(CCC(=O)O)ccc21 [Example 2]      6.33
1  CC[C@H](c1ccccc1)n1c(Nc2ccc(OC(F)(F)F)cc2)nc2cc(CCC(=O)O)ccc21 [Example 5]      7.05
2  C[C@H](c1ccccc1)n1c(Nc2ccc(OC(F)(F)F)cc2)nc2cc(CCC(=O)O)ccc21 [Example 1]      8.10

Here is another compound to look at.
Requested field: pIC50. Item: CC(C)(C)[C@H](c1ccccc1)n1c(Nc2ccc(OC(F)(F)F)cc2)nc2cc(CCC(=O)O)ccc21 [Example 11] 7.61

Sourced from patent US11407717B2
